ENDPOINT: intrinsic clearance, rat liver microsomes (mL/min/kg)

INSERT INTO results (input_smiles, qualifier_operator, assay_value) VALUES
  ('CN1CCN(c2cccc(C#N)n2)CC1', '=', 617),
  ('COc1cncc(-c2ccnc3[nH]ccc23)c1', '=', 105),
  ('Cc1ccc(-c2ccccc2-c2nc3c(cnn3C3CCN(C)CC3)[nH]2)o1', '=', 100),
  ('CN1CCN(S(=O)(=O)Cc2ccc(Cl)c(Cl)c2)CC1', '=', 887),
  ('COc1c(C)cccc1CN1CCC(O)(c2ccc(F)cc2)CC1', '=', 1280),
  ('O=C(Cn1c(-c2ccc(F)cc2)nc2ccccc21)N1CCOCC1', '≤', 10.7);
